Assay: Saturation (equilibrium) solubility by shake-flask technique
Assay type: physicochemical
Conditions: USP dissolution medium pH 6.8, aqueous buffer, thermodynamic from solid; pH 6.8; 37 °C ± 1 °C; Initial pH 6.82, Final pH 6.68
Where a name gives a salt, the structure may show the parent alone.
Measurement label: solubility (µg/mL)
The response must be a number in µg/mL with no trailing unit.

Quick one: solubility of COc1cc2nccc(Oc3ccc(NC(=O)NC4CC4)c(Cl)c3)c2cc1C(N)=O [Lenvatinib mesylate] ? 1

* * *

Experiment: Saturation (equilibrium) solubility by shake-flask technique
Type: physicochemical
Conditions: USP dissolution medium pH 2.0, simulated gastric fluid, thermodynamic from solid; pH 2.0; 37 °C ± 1 °C; Initial pH 2.0, Final pH 1.88
Protocol: The equilibrium solubility of Lenvatinib mesylate in different dissolution media at 37 °C ± 1 °C was measured by shake-flask technique. The dissolution media were prepared according to USP. The pH for each test solution was measured after the addition of the drug substance and at the end of the equilibrium solubility study. 1. Table 1: saturation solubility of Lenvatinib mesylate depending on pH
Where a name gives a salt, the structure may show the parent alone.
Measurement label: solubility (µg/mL)
Please state the figure in µg/mL; there is no need to write the unit.

I'd like to know its solubility. The compound in question is COc1cc2nccc(Oc3ccc(NC(=O)NC4CC4)c(Cl)c3)c2cc1C(N)=O [Lenvatinib mesylate] 2620
